Experiment Summary: chemical recovery from spiked human plasma; higher = better extraction
Measurement Context: pooled human plasma; extraction method: SPE only (HLB 96-well), PES comparison experiment
# thresholds on chemical recovery define classes: category 1 = under 40%, category 2 = from 40% up to 50%, category 3 = 50% and over

As a guide, the following entries are already answered.
- Cl[C@H]1[C@H](Cl)[C@@H](Cl)[C@H](Cl)[C@@H](Cl)[C@@H]1Cl: category 1
- O=P1(N(CCCl)CCCl)NCCCO1 (stereo not given) [Cyclophosphamide]: category 3
- C[C@]12C=CC(=O)C=C1CC[C@@H]1[C@@H]2[C@@H](O)C[C@@]2(C)[C@H]1CC[C@]2(O)C(=O)CO: category 3
- CCCCCOC(=O)Nc1nc(=O)n([C@@H]2O[C@H](C)[C@@H](O)[C@H]2O)cc1F: category 2
- CCNc1nc(NC(C)(C)C)nc(SC)n1: category 2
- CCC(=O)O[C@]1(C(=O)CCl)[C@@H](C)C[C@H]2[C@@H]3CCC4=CC(=O)C=C[C@]4(C)[C@@]3(F)[C@@H](O)C[C@@]21C [Clobetasol propionate]: category 2
- CCCCCCCCCCCCCC[N+](C)(C)[O-] [N,N-Dimethyltetradecylamine-N-oxide]: category 2
- O=C(O)Cc1c[nH]c2ccccc12: category 3

Shifting focus to the compound that follows.
Please classify: O=C(Nc1ccc(F)cc1)c1cccc(Oc2cccc(C(F)(F)F)c2)n1
category 1

----------
Experiment Summary: chemical recovery into PDMS from spiked human plasma; higher = better extraction
Measurement Context: pooled human plasma; extraction method: PES with PDMS; equilibration time (d): 3
Value Kind: chemical recovery into PDMS
Kindly report the value followed by its unit.

For each of the molecules below, state chemical recovery into PDMS.
1. c1ccc(-c2ccccc2-c2ccccc2)cc1
2. CCCCOP(=O)(O)OCCCC [Di-n-butyl phosphate]
3. CO/C=C(/C(=O)OC)c1ccccc1COc1cccc(C(F)(F)F)n1
4. CCc1cccc(C)c1N(C(=O)CS(=O)(=O)O)[C@@H](C)C(=O)O
5. Clc1ccc2[nH]nnc2c1

1. 81.5%
2. 31.1%
3. 48.5%
4. 9.48%
5. 0.905%

----------
Assignment: determine reported chemical recovery by SPE of plasma for the given compounds.
Experiment Summary: chemical recovery by SPE of plasma after PDMS sampling; higher = better extraction
Measurement Context: pooled human plasma; extraction method: HLB SPE of plasma after PES; equilibration time (d): 1
One number for each entry, in %.

Worked cases, answers included:
• CCOP(=S)(OCC)Oc1cc(C)nc(C(C)C)n1 = 0.161
• CCCC1COC(Cn2cncn2)(c2ccc(Cl)cc2Cl)O1 (stereo not given) = 0.277
• CNC1=C(c2cccc(C(F)(F)F)c2)C(=O)C(c2ccccc2)O1 (stereo not given) = 15.5
• COCCN(C(=O)C(=O)O)c1c(C)cccc1C = 60.2
• c1ccc(-c2ccc(C(c3ccccc3)n3ccnc3)cc2)cc1 (stereo not given) = 0.932
• CC(C1CC1)C(O)(Cn1cncn1)c1ccc(Cl)cc1 (stereo not given) = 2.91
• CO/C=C(/C(=O)OC)c1ccccc1Oc1cc(Oc2ccccc2C#N)ncn1 = 5.12
• CCOP(=O)(OCC)OC(=CCl)c1ccc(Cl)cc1Cl = 0.151
• Cc1cccc(C)c1N(Cn1cccn1)C(=O)CS(=O)(=O)O = 44.3
• c1ccc(Nc2cccc3ccccc23)cc1 = 2.23

For each of the compounds below, state chemical recovery by SPE of plasma.
1. O=c1c2ccccc2[nH]c2ccccc12
2. O=S(=O)(O)c1nc2ccccc2s1
3. Cc1cccc(C)c1N(Cn1cccn1)C(=O)C[S+](C)[O-] (stereo not given)
4. N#Cc1nn(-c2c(Cl)cc(C(F)(F)F)cc2Cl)c(N)c1C(F)(F)F
5. CCCCCCCCCCCCNC
6. O=[N+]([O-])c1ccc(O)cc1
7. CC(C)NCC(O)COc1ccc(COCCOC(C)C)cc1 (stereo not given)

57.8
31.8
59.7
17.6
0.209
57.4
32.2

For each of the compounds below, state chemical recovery by SPE of plasma.
1. O=c1ccc2ccccc2[nH]1 [2-Hydroxyquinoline]
2. NS(=O)(=O)c1cc(C(=O)O)c(NCc2ccco2)cc1Cl [Furosemide]
3. Cc1nc(N(C)C)nc(OC(=O)N(C)C)c1C
4. Cc1ccc(-c2cc(C(F)(F)F)nn2-c2ccc(S(N)(=O)=O)cc2)cc1
5. O=P(O)(Oc1ccccc1)Oc1ccccc1 [Diphenylphosphate]

1: 36.8; 2: 55.5; 3: 6.05; 4: 45.7; 5: 46.4
